Reference for the values: patent US20120129833A1

- testTarget: recombinant human ACC1 (acetyl-CoA carboxylase 1) (Homo sapiens, UniProt Q13085)
- Construct: NM_198834, amino acids 39—end; FLAG (C)
- measurementProtocol: Human ACC1 enzyme assay (HTRF ADP detection);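 also: ADP by-product quantified by competitive HTRF immunoassay with europium cryptate anti-ADP antibody and d2-labelled ADP, read after 1 h binding at 22 °C, enzyme near 2.5 ng/µl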
- appliedConditions: 50 μM ATP, 20 μM acetyl-CoA, 15 min pre-incubation, 20 min at 22° C.; read-out: ACC 1 IC50
measuredQuantity: IC50 (nM)
Write the number in nM without appending the unit.

Below are worked cases with known answers.
O=C1C(c2cc(-c3ccc(Cl)cc3Cl)ccc2Cl)C(=O)N2CCOCCN12; 457
Cc1ccc(-c2ccc(Cl)cc2)cc1C1=C(O)C2(CCC(C)(C)CC2)NC1=O; 240
Cc1ccc(-c2ccc(Cl)cc2)cc1C1=C(O)C(C)(C)OC1=O; 581
CC1COC2(CCC3(CC2)NC(=O)C(c2cc(-c4ccc(Cl)cc4)ccc2Cl)=C3O)O1 (stereo not shown); 489
Cc1cc(C)c(-c2ccc(Cl)cc2)c(C)c1C1=C(O)C2(CCCCC2)SC1=O; 1310

Return reported IC50. Input compound: CC1COC2(CCC3(CC2)NC(=O)C(c2cc(-c4ccc(Cl)cc4)ccc2Cl)=C3O)OC1 (stereo not shown) 647

Return reported IC50. Input compound: CCOC1CCC2(CC1)NC(=O)C(c1cc(-c3ccc(Cl)cc3)ccc1C)=C2O (stereo not shown) 443

Return reported IC50. Input compound: `Cc1ccc(-c2ccc(Cl)cc2)cc1C1=C(O)CC2(CCCCC2)CC1=O` 578

Return reported IC50. Input compound: `Cc1ccc(-c2cccc(Cl)c2)cc1C1=C(O)C2(CCCCC2)CC1=O` 1390

Return reported IC50. Input compound: COCC1(C)NC(=O)C(c2cc(-c3ccc(Cl)cc3)ccc2C)=C1O (stereo not shown) 812

Return reported IC50. Input compound: `Cc1ccc(-c2ccc(C(F)(F)F)cc2)cc1-c1c(O)c2ccc(F)cc2[nH]c1=O` 1690

Return reported IC50. Input compound: Cc1ccc(-c2ccc(Cl)cc2)cc1C1=C(O)C2(CCC3(CC2)OCC(C)O3)NC1=O (stereo not shown) 391

Return reported IC50. Input compound: O=C1C(c2cc(-c3ccc(Cl)cc3)ccc2Cl)C(=O)N2C3CCC(C3)N12 (stereo not shown) 913

Return reported IC50. Input compound: `Cc1ccc(-c2ccc(C)c(C3=C(O)C4(CCOCC4)NC3=O)c2)cc1` 742

Return reported IC50. Input compound: `Cc1ccc(-c2ccc(Cl)cc2)cc1-c1c(O)c2ccc(Cl)cc2[nH]c1=O` 420

Return reported IC50. Input compound: `Cc1ccc(-c2ccc(Cl)cc2)cc1C1=C(O)C(C)(C)C(C)(C)OC1=O` 586

Return reported IC50. Input compound: `Cc1cc(C)c(-c2c(O)c3ccc(Cl)cc3[nH]c2=O)cc1-c1ccc(Cl)cc1` 580

* * *

pIC50: −log10 of the molar value.
Dear all, this message contains pIC50 results, target or system ACC2 (acetyl-CoA carboxylase 2) (Homo sapiens, UniProt O00763).

Below are worked cases with known answers.
COC1CCC2(CC1)NC(=O)C(c1c(C)cc(OC(F)(F)F)cc1Cl)=C2O (stereo not shown) [Example C-3, reference compound]; < 4.70
Cc1ccc(-c2ccc(C)c(C3=C(O)C4(CCCOC4)NC3=O)c2)cc1 (stereo not shown); < 4.70
Cc1ccc(-c2ccc(Cl)cc2)c(C)c1C1C(=O)N2CCOCCN2C1=O; 4.77

State the measured pIC50 (ACC2 (acetyl-CoA carboxylase 2) (Homo sapiens, UniProt O00763)) of `O=C1C(c2cc(-c3ccc(F)cc3F)ccc2Cl)C(=O)N2CCOCCN12` < 4.70
